B1: library; numbered along this chain (parent)
chain: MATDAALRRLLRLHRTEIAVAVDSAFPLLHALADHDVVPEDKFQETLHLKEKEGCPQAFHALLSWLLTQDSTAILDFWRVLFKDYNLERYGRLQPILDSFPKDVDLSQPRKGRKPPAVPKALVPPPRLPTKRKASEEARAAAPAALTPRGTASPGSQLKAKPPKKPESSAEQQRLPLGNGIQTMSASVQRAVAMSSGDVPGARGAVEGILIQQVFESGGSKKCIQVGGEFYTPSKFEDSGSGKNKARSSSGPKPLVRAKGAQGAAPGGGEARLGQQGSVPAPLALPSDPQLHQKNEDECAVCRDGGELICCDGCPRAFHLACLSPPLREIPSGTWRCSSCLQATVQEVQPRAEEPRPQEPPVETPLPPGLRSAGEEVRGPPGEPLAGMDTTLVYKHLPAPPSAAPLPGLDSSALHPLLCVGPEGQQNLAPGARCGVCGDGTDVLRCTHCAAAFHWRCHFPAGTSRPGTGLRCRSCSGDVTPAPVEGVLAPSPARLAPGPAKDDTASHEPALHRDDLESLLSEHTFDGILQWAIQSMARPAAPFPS

# Variants of: B1
# TEST PROTOCOL: AIRE transcriptional activation functional score (insulin promoter-GFP; nonsense median 0, synonymous median 1) (normalised score); higher = higher AIRE activity (more reporter activation)
# SETUP CONDITIONS: with insulin promoter-GFP reporter in HEK293
The label depends only on AIRE transcriptional activation functional score: yes (1) if it is at least -0.2, no (0) if it is smaller.

| CHANGES | GROUP |
| --- | --- |
| S24L | yes (1) |
| G227I | no (0) |
| L93Q | yes (1) |
| P148C | yes (1) |
| S324K | yes (1) |
